Target: Recombinant Cat D (Homo sapiens (Human), UniProt P07339)
Sequence (P07339 65-412): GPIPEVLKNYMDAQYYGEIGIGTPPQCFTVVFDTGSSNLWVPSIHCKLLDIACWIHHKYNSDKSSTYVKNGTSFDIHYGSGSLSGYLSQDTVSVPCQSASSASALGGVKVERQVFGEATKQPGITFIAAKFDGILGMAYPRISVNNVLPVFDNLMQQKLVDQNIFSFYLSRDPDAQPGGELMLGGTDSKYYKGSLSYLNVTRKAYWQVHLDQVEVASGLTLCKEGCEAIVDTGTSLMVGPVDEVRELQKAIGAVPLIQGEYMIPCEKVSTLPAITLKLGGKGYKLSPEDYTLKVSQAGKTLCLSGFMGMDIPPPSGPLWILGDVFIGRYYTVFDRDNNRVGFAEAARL
Experiment: In vitro enzymatic Cathepsin D (Cat D) FRET assay
Assay type: biochemical
Conditions: read-out: IC50 IP (μM) CatD
readout kind: IC50 (µM)

(P) C#CCOc1cnc2c(Nc3cc(F)c(F)c([C@@]4(C)N=C(N)S[C@@]5(C(=O)N6CCCC6)C[C@H]54)c3)ncnc2c1
(Q) C#CCOc1cnc2c(Nc3ccc(F)c([C@@]4(C)N=C(N)S[C@]5([C@@H](C)O)[C@H]4C5(F)F)c3)nccc2n1
Prompt line: Of P and Q , whose reported IC50 is the larger number? Answer = label.
Response line: Q
(Q: 547 µM, P: 315 µM)

* * *

Biological target: human recombinant BACE1 (Homo sapiens (Human), UniProt P56817)
Sequence (P56817 46-501): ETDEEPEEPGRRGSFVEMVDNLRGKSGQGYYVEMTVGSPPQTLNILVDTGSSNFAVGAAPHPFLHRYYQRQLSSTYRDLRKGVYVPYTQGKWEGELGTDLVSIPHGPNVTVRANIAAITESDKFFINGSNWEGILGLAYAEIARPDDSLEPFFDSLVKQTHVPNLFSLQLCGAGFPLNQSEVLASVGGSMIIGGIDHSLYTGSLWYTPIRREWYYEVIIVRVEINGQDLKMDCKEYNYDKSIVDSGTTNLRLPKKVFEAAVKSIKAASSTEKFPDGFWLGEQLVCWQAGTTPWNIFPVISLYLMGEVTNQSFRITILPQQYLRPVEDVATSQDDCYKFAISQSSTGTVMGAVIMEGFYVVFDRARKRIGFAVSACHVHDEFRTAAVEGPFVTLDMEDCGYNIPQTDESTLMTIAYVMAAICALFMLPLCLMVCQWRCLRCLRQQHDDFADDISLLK
Test: In vitro enzymatic BACE1 FRET assay
Type: biochemical
Details: read-out: IC50 IP (μM) BACE1 enzyme
readout kind: IC50 (µM)

Cc1ncoc1[C@]12C[C@H]1[C@@](CF)(c1cc(NC(=O)c3ccc(Cl)cn3)ccc1F)N=C(N)S2
0.000847
C[C@]1(c2cc(Nc3ncnc4cc(OCc5ncco5)cnc34)cnc2F)N=C(N)S[C@]2(CO)[C@H]1C2(F)F
0.000274
C[C@]1(c2cc(Nc3nccc4nc(OCCN5CCCC5=O)cnc34)cc(F)c2F)N=C(N)S[C@@]2(C(F)F)C[C@@H]12
0.149
C#CCOc1cnc(C(=O)Nc2cc(F)c(F)c([C@@]3(C)N=C(N)S[C@@]4(C#N)C[C@H]43)c2)c(C)c1
0.00104
C#CCOc1cnc2c(Nc3ccc(F)c([C@@]4(C)N=C(N)S[C@]5([C@H](C)O)[C@H]4C5(F)F)c3)nccc2n1
0.00102

(a) COC[C@]12C[C@H]1[C@@](CF)(c1cc(Nc3nccc4cc(C#N)cnc34)ccc1F)N=C(N)S2
(b) C#CCOc1ccc(C(=O)Nc2ccc(F)c([C@@]3(CF)N=C(N)S[C@@]4(c5ocnc5C)C[C@@H]34)c2)nc1
Prompt line: // pick larger IC50 from pair: a vs b Your choice should be expressed through its label.
Response line: a

(P) NC1=N[C@](CF)(c2cc(NC(=O)c3ccc(Cl)cn3)ccc2F)[C@@H]2[C@H]3CSC[C@]32S1 (mixture of isomers)
(Q) CC(C)(O)[C@@]12SC(N)=N[C@](C)(c3cc(NC(=O)c4ccc(Cl)cn4)ccc3F)[C@@H]1C2(F)F
Prompt line: Returns: the label, P or Q , whose recorded IC50 is the lower number. Respond using the label that marks the chosen record.
Response line: Q

(A) CC#CCOc1cnc2c(Nc3ccc(F)c([C@@]4(CF)N=C(N)S[C@@]5(/C=C/C(=O)N(C)C)C[C@H]54)c3)nccc2c1
(B) C[C@H](Oc1cnc2c(Nc3cc(F)c(F)c([C@@]4(C)N=C(N)S[C@@]5(C#N)C[C@H]54)c3)nccc2n1)c1ncco1
(C) COC[C@]12C[C@H]1[C@@](C)(c1cc(NC(=O)c3cnc(OC4COC4)cn3)ccc1F)N=C(N)S2
(D) NC1=N[C@](CF)(c2cc(NC(=O)c3ccc(Cl)cn3)ccc2F)[C@@H]2C[C@]2(COCC(F)(F)F)S1
(E) C#CCOc1cnc(C(=O)Nc2cc(F)c(F)c([C@@]3(C)N=C(N)S[C@@]4(C(=O)NC)C[C@H]43)c2)cn1
Prompt line: Returns the items ordered by IC50, from maximum to minimum. Submit the labels in the order that the ranking request calls for.
Response line: C, D, A, B, E
